The reported measurements were obtained from the supplement of paper PMC11451515.

In this section, each of the compounds is paired with its reported AUC of viability dose-response curve.
- Test system: NOMO1
- Experimental Protocol: AUC of viability dose-response curve (% viability x log10 dose units); higher = less sensitive
- Stated Conditions: RPMI 5 mM glucose + 10% dialyzed FBS; 48 h
Number only, no unit.

Structure Notation	AUC of viability dose-response curve
COC(=O)CCC1=C(C)C2=CC3=NC(=CC4=C(C)C(=C([NH]4)C=C\5N=C(C=C1[NH]2)\C(=C5C)CCC(O)=O)C=C)\C6=C\C=C(/[C@@H](C(=O)OC)[C@@]36C)C(=O)OC	397
CN(C[C@@H]1COCCO1)[S+]([O-])(=O)NC2=CC3=C(C=C2)\C=C/C4=C(C=C(C=N4)C5=C[N](C)N=C5)C3=O	355
O=c1oc2cc(O)ccc2s1	467

// below: AUC of viability dose-response curve requested for another compound
Fill in the blank: the reported AUC of viability dose-response curve of C[S+](=O)([O-])OCCCCO[S+](C)(=O)[O-] is ____. 462
